experiment: Caco-2 monolayer transport study (apparent permeability, Papp) of rosemary extract compounds; conditions: human, Caco-2, pH 7.4
Would you mind telling me the reported Papp A→B at 120 min, 200 μg/mL of each entry?
Answers are plain numbers, in ×10⁻⁶ cm/s.

In the examples that follow, each entry is paired with its recorded Papp A→B at 120 min, 200 μg/mL.
CC(C)c1cc2c(c(O)c1O)C(=O)C1CCCC(C)(C)C1CC2 (centres unmarked)    2.43
COc1cc2oc(-c3ccc(O)cc3)cc(=O)c2c(O)c1OC    33.3
C=C1CCC2(C(=O)O)CCC3(C)C(=CCC4C5(C)CCC(O)C(C)(C)C5CCC43C)C2C1C (centres unmarked)    7.2
COc1c(O)cc2oc(-c3ccc(O)cc3)cc(=O)c2c1O    9.05

Look at this molecule and give its reported Papp A→B at 120 min, 200 μg/mL. "Cc1cc2c(cc(O)c1=O)[C@@]13CCCC(C)(C)[C@@H]1C[C@@H]2OC3"
17.6
